EC50 values, listed per item
biological target: Adrenergic β2 (Homo sapiens, UniProt P07550); construct: endogenous in cells; host or cells: H292 cells; assay: Adrenergic β2 mediated cAMP production in H292 cells (AlphaScreen cAMP detection); assay type: cell-based; details: cAMP production in H292 cells, 300 μM rolipram, 10 minutes with compound; read-out: β2 pEC50 (converted)
Sequence (P07550 whole entry): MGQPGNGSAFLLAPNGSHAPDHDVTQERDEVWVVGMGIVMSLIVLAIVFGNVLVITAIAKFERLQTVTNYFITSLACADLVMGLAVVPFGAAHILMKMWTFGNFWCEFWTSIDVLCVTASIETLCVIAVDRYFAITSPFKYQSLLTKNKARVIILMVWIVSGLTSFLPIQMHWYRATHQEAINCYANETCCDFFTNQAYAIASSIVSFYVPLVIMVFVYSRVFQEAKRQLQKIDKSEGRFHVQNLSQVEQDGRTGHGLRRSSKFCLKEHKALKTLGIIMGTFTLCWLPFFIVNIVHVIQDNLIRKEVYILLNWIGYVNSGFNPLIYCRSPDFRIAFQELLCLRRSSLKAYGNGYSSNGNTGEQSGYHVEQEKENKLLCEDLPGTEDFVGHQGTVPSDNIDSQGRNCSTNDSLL
Where a name gives a salt, the structure may show the parent alone.
Give the quantity in pM, number only.

State its EC50: O=c1[nH]c2c(O)ccc([C@@H](O)CNCCc3cccc(CNCCc4cccc[n+]4[O-])c3)c2s1 [Example 40, bis-trifluoroacetate salt]
2510

Next:
State its EC50: O=c1[nH]c2c(O)ccc([C@@H](O)CNCCc3cccc(CN[C@@H]4C[C@H]4c4ccc(F)cc4)c3)c2s1 [Example 10, bis-trifluoroacetate salt]
316

State its EC50: COCCNCc1cccc(CCNC[C@H](O)c2ccc(O)c3[nH]c(=O)sc23)c1 [Example 13, di-hydrochloride salt]
2000

State its EC50: O=c1[nH]c2c(O)ccc([C@@H](O)CNCCc3cccc(CN4CCOCC4)c3)c2s1 [Example 72, bis-hydrochloride salt]
1000

State its EC50: CC(C)NCc1ccc(CCNC[C@H](O)c2ccc(O)c3[nH]c(=O)sc23)cc1 [Example 53, bis-trifluoroacetate salt]
631

State its EC50: CC(C)OCCCNCc1cccc(CCNC[C@H](O)c2ccc(O)c3[nH]c(=O)sc23)c1 [Example 64, bis-hydrochloride salt]
794

State its EC50: O=c1[nH]c2c(O)ccc([C@@H](O)CNCCc3cccc(CN4CCCCCC4)c3)c2s1 [Example 71]
794

State its EC50: O=c1[nH]c2c(O)ccc([C@@H](O)CNCCc3cccc(CN4CCCC4)c3)c2s1 [Example 51, bis-hydrochloride salt]
1000

###

Target: recombinant human α1D receptor (Homo sapiens)
Construct: expressed in transfected cells; host or cells: HEK293
Assay: Adrenergic α1D selectivity assay, [3H]-prazosin binding to HEK293 membranes
Conditions: inhibition of [3H]-prazosin binding, HEK293 membranes with recombinant human α1D; read-out: α1D pEC50 (converted)
Method: These were diluted in Assay Buffer (50 mM HEPES, 1 mM EDTA, 0.1% gelatin, pH 7.4) to provide a final concentration of membranes that gave a clear window between maximum and minimum specific binding. Assays were performed in U-bottomed 96-well polypropylene plates. […] Five washes with 250 μL wash buffer (50 mM HEPES, 1 mM EDTA, pH 7.4) were performed at 4° C. to remove unbound radioactivity. […] Total specific binding (B0) was determined by subtracting the mean NSB from the mean maximum binding. […]
Where a name gives a salt, the structure may show the parent alone.
measured property: EC50
A complete answer gives the number and then names the unit.

The examples below pair each entry with its known result.
State its EC50: CC(C)NCc1ccc(CCNC[C@H](O)c2ccc(O)c3[nH]c(=O)sc23)cc1 [Example 53, bis-trifluoroacetate salt]
398 nM

State its EC50: O=c1[nH]c2c(O)ccc([C@@H](O)CNCCc3cccc(CN[C@@H]4C[C@H]4c4ccc(F)cc4)c3)c2s1 [Example 10, bis-trifluoroacetate salt]
316 nM

State its EC50: O=c1[nH]c2c(O)ccc([C@@H](O)CNCCc3cccc(CNCCc4c(Cl)cccc4Cl)c3)c2s1 [Example 1, bis-trifluoroacetate salt]
63.1 nM

State its EC50: COCCNCc1cccc(CCNC[C@H](O)c2ccc(O)c3[nH]c(=O)sc23)c1 [Example 13, di-hydrochloride salt]
501 nM

State its EC50: COc1ccccc1CNCCc1cccc(CCNC[C@H](O)c2ccc(O)c3[nH]c(=O)sc23)c1 [Example 45, bis-hydrochloride salt]
25.1 nM

// below: EC50 requested for another molecule
State its EC50: O=c1[nH]c2c(O)ccc([C@@H](O)CNCCc3cccc(CNCc4ccccc4Cl)c3)c2s1 [Example 3, bis-trifluoroacetate salt]
158 nM

###

EC50 values, listed per item
biological target: recombinant human α1D receptor (Homo sapiens, UniProt P25100); construct: expressed in transfected cells; host or cells: HEK293; test: Adrenergic α1D selectivity assay, [3H]-prazosin binding to HEK293 membranes; settings: inhibition of [3H]-prazosin binding, HEK293 membranes with recombinant human α1D; read-out: α1D pEC50 (converted)
Sequence (P25100 whole entry): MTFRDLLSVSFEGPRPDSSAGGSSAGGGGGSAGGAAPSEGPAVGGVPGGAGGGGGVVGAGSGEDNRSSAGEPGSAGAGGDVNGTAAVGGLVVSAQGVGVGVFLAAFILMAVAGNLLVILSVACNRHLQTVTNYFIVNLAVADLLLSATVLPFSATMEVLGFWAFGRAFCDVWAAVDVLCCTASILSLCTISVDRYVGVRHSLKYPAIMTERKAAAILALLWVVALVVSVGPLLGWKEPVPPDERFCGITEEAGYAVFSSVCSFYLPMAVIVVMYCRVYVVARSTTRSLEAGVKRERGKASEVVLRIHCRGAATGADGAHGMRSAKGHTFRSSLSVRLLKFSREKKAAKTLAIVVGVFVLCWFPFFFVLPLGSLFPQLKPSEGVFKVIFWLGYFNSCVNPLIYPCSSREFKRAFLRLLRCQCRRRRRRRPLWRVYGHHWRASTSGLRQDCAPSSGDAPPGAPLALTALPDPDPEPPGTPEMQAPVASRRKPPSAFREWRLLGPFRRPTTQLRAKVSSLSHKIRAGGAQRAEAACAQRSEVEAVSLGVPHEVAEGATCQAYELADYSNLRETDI
Counter-ions that a name gives are not always drawn.
Give the quantity in nM, number only.

The examples below pair each entry with its known result.
State its EC50: O=c1[nH]c2c(O)ccc([C@@H](O)CNCCc3cccc(CN4CCCC4)c3)c2s1 [Example 51, bis-hydrochloride salt]
1000

State its EC50: COc1ccccc1CNCc1cccc(CCNC[C@H](O)c2ccc(O)c3[nH]c(=O)sc23)c1 [Example 36, bis-trifluoroacetate salt]
200

// below: EC50 requested for another compound
State its EC50: O=c1[nH]c2c(O)ccc([C@@H](O)CNCCc3cccc(CNCc4ccccn4)c3)c2s1 [Example 61, bis-hydrochloride salt]
316

Taken from patent US7951954B2.
